Test: reduction of polyQ htt aggregates in cells – imaging, exon1htt(103Q)mCFP cells, high-content imaging, primary screen (AID 483);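 further: compound exposure lasted 3 days before fixation; percent of the per-plate median nuclei count of sample wells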
Conditions: exon1htt(103Q)mCFP cell line, aggregate imaging, at 2 µM; measured here: cell count, toxicity
quantity measured: nuclei count (%)
Return type: number; implicit unit %.

GET /value?item= Cc1ccc(S(=O)(=O)N2CCN(C(=O)CN3C(=O)NC4(CCOc5ccccc54)C3=O)CC2)cc1 (configuration not stated) &field=nuclei count returns 106

GET /value?item= CCn1c(=O)n(CC(=O)N(C)Cc2ccccc2)c(=O)c2ccccc21 &field=nuclei count returns 120

GET /value?item= O=C(COc1ccc(S(=O)(=O)N2CCCC2)cc1Cl)NC1CC1 &field=nuclei count returns 58.7

GET /value?item= CCOCCCNCC(=O)N1CCN(S(=O)(=O)c2ccc(C)cc2)CC1 &field=nuclei count returns 94.5

GET /value?item= Nc1nc(C(=O)N2CCOCC2)nn1S(=O)(=O)c1ccc(Cl)cc1 &field=nuclei count returns 103

GET /value?item= COc1cc(C(N)=O)ccc1OCc1ccccc1 &field=nuclei count returns 107

GET /value?item= Cc1nc(NC2=NCN(CCCN3CCOCC3)CN2)nc2c(C)cccc12 &field=nuclei count returns 73.7

GET /value?item= COc1cc(CC(=O)Nc2ncc(C)s2)cc(OC)c1OC &field=nuclei count returns 78.3

GET /value?item= Cc1ccc(C2N(c3ccc(Cl)c(Cl)c3)C(=O)C3CCCN32)o1 (configuration not stated) &field=nuclei count returns 98.2

GET /value?item= Cc1nc2ccc(S(=O)(=O)NCC(=O)O)cc2s1 &field=nuclei count returns 110

GET /value?item= O=c1[nH]c(=O)n([C@H]2C[C@H](O)[C@@H](CO)O2)cc1F &field=nuclei count returns 10.3

GET /value?item= CN1CCN(CC(=O)Nc2ccc(Cl)cc2Cl)CC1 &field=nuclei count returns 103

GET /value?item= CCOc1ccc(N(CC(=O)NCC2CCCO2)S(=O)(=O)c2ccc(OC)c(OC)c2)cc1 (configuration not stated) &field=nuclei count returns 107

GET /value?item= COc1ccc(C2C(C(C)=O)=C(C)N=c3s/c(=C\c4ccc5c(c4)OCO5)c(=O)n32)c(OC)c1 (configuration not stated) &field=nuclei count returns 118

GET /value?item= CCN(CC)c1ccc(NC(=O)c2[nH]c(C)c(C(C)=O)c2C)c(C)c1 &field=nuclei count returns 109

GET /value?item= CC(=O)Nc1ccc(Cl)c(C(N)=O)c1 &field=nuclei count returns 94.4

GET /value?item= Cn1c(=O)c(NC(=O)c2ccccc2)c2n(c1=S)CCCCC2 &field=nuclei count returns 95.3

GET /value?item= CNC(=O)Oc1ccc2c(c1)[C@]1(C)CCN(C)[C@@H]1N2C &field=nuclei count returns 88.6

GET /value?item= COc1cccc(C2C(C#N)=C(N)OC3=C2C(=O)CCC3)c1OC(=O)c1ccco1 (configuration not stated) &field=nuclei count returns 103

GET /value?item= Cc1cccn2c(=O)c3cc(C#N)c(=O)n(CCCN4CCOCC4)c3nc12 &field=nuclei count returns 71.7

GET /value?item= Cn1nc(-c2ccc(C(=O)NCC3CCCO3)cc2)c2ccccc2c1=O (configuration not stated) &field=nuclei count returns 104

GET /value?item= COCCNC(=O)C(C)OC(=O)c1nsc(Cl)c1Cl (configuration not stated) &field=nuclei count returns 101
